The following compounds are listed with their measured melting point values.

{"columns": ["Compound", "melting point"],
 "data": [
  ["CSC(Oc1cc2cc(Br)cnc2cc1C)C(=O)NC(C)(C)C (stereo not drawn)", "132 to 134 °C"],
  ["CSC(Oc1cc2cc(-c3ccsc3)cnc2cc1F)C(=O)NC(C)(C)C (stereo not drawn)", "170 to 173 °C"],
  ["CSC(Oc1cc2cc(Br)cnc2cc1F)C(=O)NC(C)(C)C (stereo not drawn)", "144 to 145 °C"],
  ["CSC(Oc1cc2cc(I)cnc2cc1F)C(=O)NC(C)(C)C (stereo not drawn)", "165 to 166 °C"],
  ["COCC#CC(C)(C)NC(=O)C(C)(S)Oc1cc2cc(-c3ccsc3)cnc2cc1F (stereo not drawn)", "132 to 134 °C"],
  ["CSC(Oc1cc2cc(Br)cnc2cc1Cl)C(=O)NC(C)(C)C (stereo not drawn)", "172 to 174 °C"]
]}
